Please respond with reported TGI for every item in the list.
Tested on: DMS 273 small cell lung
EXPERIMENT NOTES: NCI tumour cell line growth inhibition, 48 h

Please give the measured TGI for this molecule: COc1ccc([C@@H]2OC(=O)C3C2C(=O)O[C@H]3c2ccc(OC)cc2)cc1 (stereo partly specified)
> 100 µM

What does the data say about its TGI? Entry: CC(C)(C)CI
34.8 µM

Give its TGI value. Item: O=C(O)CCC1c2[nH]c3ccccc3c2CCN1Cc1ccccc1 (stereo unspecified)
> 100 µM

Need TGI, item Cn1c(=O)n(C2(C)CSC2)c2ccccc21
> 100 µM

Any idea what its TGI is? The molecule is C/C(CCN(C)C)=N\OC(=O)c1ccccc1
> 100 µM

Could you share which TGI value was measured for [CH3][Hg]/[N]=C(/N)NC#N ?
27.5 µM

---

Please provide measured log10 TGI for the entries that follow.
Test system: UACC-62 melanoma
EXPERIMENT NOTES: NCI tumour cell line growth inhibition, 48 h
Annotation: log10 of TGI, µM basis.

# input molecule: CC[C@@]1(O)C(=O)OCc2c1cc1n(c2=O)Cc2c-1nc1cc(F)c(C)c3c1c2[C@@H](NC(=O)CO)CC3 ; wanted: its log10 TGI
-0.93

I would be grateful if you could share the reported log10 TGI for COc1cc2c(cc1-c1coc3cc(O)ccc3c1=O)OCO2 .
1.81

Requested read-out: log10 TGI. Entry: COc1ccc2c(ccc3c(C(=O)NCCCN(C)CCCNC(=O)c4cn(C)c5c4ccc4cc(OC)ccc45)cn(C)c32)c1
0.50

Name the recorded log10 TGI for Nc1c(C(=O)Nc2cccc(C(F)(F)F)c2)sc2nc3c(cc12)CCCCCC3 .
1.33

For CO/C(=C1/NC(=O)C(Cc2ccc(O)c(Br)c2)N(C)C(=O)C(C)NC(=O)CCC/C=C(\C)CCC(C)OC1=O)c1ccccc1 (stereo unspecified) , what is its reported log10 TGI?
1.31

---

Give measured GI50 for each item. Keep answers brief.
Tested on: SF-268 CNS
EXPERIMENT NOTES: NCI tumour cell line growth inhibition, 48 h

State the recorded GI50 for this entry: Nc1n[nH]c2ccc([C@@H]3Nc4ccc5cn[nH]c5c4[C@H]4C5CCC(C5)[C@@H]34)cc12 (stereo not given in full)
2.59 µM

Would you kindly share the measured GI50 for COC(=O)c1c2c(c(C)[n+]([O-])c1C)C(=O)C(NCc1ccc(O)cc1)=CC2=O ?
1.64 µM

Dear colleague, I am looking for the recorded GI50 of the following molecule: CC(=O)N1N=C(c2ccc(C)cc2)CC1c1cn(-c2ccccc2)nc1-c1cccc(Nc2ccnc3cc(Cl)ccc23)c1 (stereo not given)
> 100 µM

Any idea what its GI50 is? The molecule is Cc1cc(C)c2c(c1)N(C)c1ncnc(-n3cnc4cc(C)ccc43)c1CC2C (stereo not given)
6.04 µM

Please give the measured GI50 for this molecule: COC(=O)c1cccc(NC(=O)c2ccc(NC3=C(Cl)C(=O)N(Cc4ccccc4)C3=O)cc2)c1
23 µM

---

For each entry below, report its TGI value.
Tested on: SR leukemia
EXPERIMENT NOTES: NCI tumour cell line growth inhibition, 48 h

Query for SR leukemia: what TGI does the record show for COC(=O)c1c2c(cc3c1CC1(C3)Cc3cc4c(c(C(=O)OC)c3C1)CCC4)CCC2 ?
> 100 µM

Lab note: need TGI with SR leukemia for entry O[C@@]12Cc3c([nH]c4ccccc34)[C@@H]3Oc4c(-c5ccccc5)ccc5c4[C@@]31CCN(CC1CC1)[C@@H]2C5 , please look it up.
> 100 µM

Form field: TGI recorded for O=C(O)c1ccc(/C=N/N=C2c3ccccc3-c3ccccc32)cc1 with SR leukemia (enter value)
> 100 µM

These entries and their values trace back to PubChem BioAssay (NCI).
